molecular target: Prostaglandin E2 receptor EP4 subtype (Homo sapiens, UniProt P35408); assay: Displacement of [3H]-PGE2 from human EP4 receptor expressed in HEK293 cells; type: cell-based
Sequence (P35408 whole entry): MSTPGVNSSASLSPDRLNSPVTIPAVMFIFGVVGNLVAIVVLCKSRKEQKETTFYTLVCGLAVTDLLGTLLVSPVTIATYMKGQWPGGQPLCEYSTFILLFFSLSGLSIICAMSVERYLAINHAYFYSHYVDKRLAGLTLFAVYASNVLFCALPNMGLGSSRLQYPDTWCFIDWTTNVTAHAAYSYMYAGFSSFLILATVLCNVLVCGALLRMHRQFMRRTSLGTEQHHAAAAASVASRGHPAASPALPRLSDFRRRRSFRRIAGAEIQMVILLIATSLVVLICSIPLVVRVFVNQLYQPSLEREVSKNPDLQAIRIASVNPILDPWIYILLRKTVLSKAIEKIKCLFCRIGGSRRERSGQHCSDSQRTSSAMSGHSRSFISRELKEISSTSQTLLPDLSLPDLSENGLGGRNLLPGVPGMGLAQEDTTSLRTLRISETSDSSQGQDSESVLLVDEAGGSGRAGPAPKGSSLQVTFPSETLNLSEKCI
assay.metric: IC50 (nM)

Worked set:
// query Requested field: IC50. Item: C[C@H](NC(=O)c1cccc2c1Oc1cc(C(F)(F)F)ccc1CC2)c1ccc(C(=O)O)cc1
// result 2

// query Param item = C[C@H](NC(=O)c1cc(Cl)ccc1Oc1ccc(F)cc1)c1ccc(C(=O)O)cc1 ; retrieve measured IC50.
// result 10

[a] O=C(O)c1ccc(C2(NC(=O)c3cccc4c3Oc3cc(C(F)(F)F)ccc3CC4)CC2)cc1
[b] O=C(O)c1ccc(C2(NC(=O)c3cccc4c3Oc3ccc(C(F)(F)F)cc3CC4)CC2)cc1
[c] C[C@H](NC(=O)c1cccc2c1Oc1ccc(C(F)(F)F)cc1CC2)c1ccc(C(=O)O)cc1
// query Please put the entries in order of rising IC50. Enter labels, ranked according to the request.
// result a, b, c
(a: 4 nM, b: 27 nM, c: 63 nM)
